hCRHR1 Luciferase Reporter Assay IC50 overview
# targetEntity: T1, corticotropin-releasing hormone (CRH) peptide (human and mouse (same sequence), not fully specified)
# T1 peptide: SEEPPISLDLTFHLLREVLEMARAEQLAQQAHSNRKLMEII
# assaySummary: cell-based or functional assay
Answer format: numeric, nM implied, no suffix.

Illustrative cases are given below, each with its answer.
>  <binder>
PR302034 (antibody, human IgG1, kappa, V domains shown, humanized variant of PR301777) VH: EVQLVESGGGLVQPGGSLRLSCAASGFTFSNYWMNWVRQAPGKGLEWVGEIRLKSNNYATHYAESVKGRFTISRDDSKNSLYLQMNSLKTEDTAVYYCTVGTLVYWGQGTLVTVSS VL: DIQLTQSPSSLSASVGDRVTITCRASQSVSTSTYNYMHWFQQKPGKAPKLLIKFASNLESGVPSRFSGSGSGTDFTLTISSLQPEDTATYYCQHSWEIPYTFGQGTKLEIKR

>  <hCRHR1 Luciferase Reporter Assay IC50 (nM)>
6.87

$$$$
>  <binder>
PR302055 (antibody, human IgG1, kappa, V domains shown, humanized variant of PR301777) VH: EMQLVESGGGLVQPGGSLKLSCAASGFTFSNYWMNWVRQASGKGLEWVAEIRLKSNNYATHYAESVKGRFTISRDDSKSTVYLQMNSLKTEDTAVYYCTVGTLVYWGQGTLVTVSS VL: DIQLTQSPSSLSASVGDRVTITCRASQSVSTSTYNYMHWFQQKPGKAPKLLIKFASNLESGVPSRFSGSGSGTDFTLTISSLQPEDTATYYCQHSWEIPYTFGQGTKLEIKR

>  <hCRHR1 Luciferase Reporter Assay IC50 (nM)>
1.35

$$$$
>  <binder>
PR302036 (antibody, human IgG1, kappa, V domains shown, humanized variant of PR301777) VH: EMQLVESGGGLVQPGGSLRLSCAASGFTFSNYWMNWVRQAPGKGLEWVAEIRLKSNNYATHYAESVKGRFTISRDDSKSSVYLQMNSLKTEDTAVYYCTVGTLVYWGQGTLVTVSS VL: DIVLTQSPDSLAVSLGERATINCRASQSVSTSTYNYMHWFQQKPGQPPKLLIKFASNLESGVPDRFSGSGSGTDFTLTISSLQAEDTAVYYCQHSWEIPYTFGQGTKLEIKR

>  <hCRHR1 Luciferase Reporter Assay IC50 (nM)>
1.4

$$$$

Please find the next binder below.
Data request: Using the record for PR302050 (antibody, human IgG1, kappa, V domains shown, humanized variant of PR301777) VH: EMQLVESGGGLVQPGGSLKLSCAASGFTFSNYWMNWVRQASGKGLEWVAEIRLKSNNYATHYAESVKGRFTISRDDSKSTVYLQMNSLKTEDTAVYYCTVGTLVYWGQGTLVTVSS VL: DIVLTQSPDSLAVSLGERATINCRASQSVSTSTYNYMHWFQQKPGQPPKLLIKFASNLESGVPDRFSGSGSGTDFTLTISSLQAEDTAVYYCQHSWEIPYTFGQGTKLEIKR , report its hCRHR1 Luciferase Reporter Assay IC50.
Data returned: 0.572

Values from patent US20260042834A1
